Source: ChEMBL document CHEMBL1136929

Biological target: Cannabinoid receptor 2 (Homo sapiens, UniProt P34972)
Sequence (P34972 whole entry): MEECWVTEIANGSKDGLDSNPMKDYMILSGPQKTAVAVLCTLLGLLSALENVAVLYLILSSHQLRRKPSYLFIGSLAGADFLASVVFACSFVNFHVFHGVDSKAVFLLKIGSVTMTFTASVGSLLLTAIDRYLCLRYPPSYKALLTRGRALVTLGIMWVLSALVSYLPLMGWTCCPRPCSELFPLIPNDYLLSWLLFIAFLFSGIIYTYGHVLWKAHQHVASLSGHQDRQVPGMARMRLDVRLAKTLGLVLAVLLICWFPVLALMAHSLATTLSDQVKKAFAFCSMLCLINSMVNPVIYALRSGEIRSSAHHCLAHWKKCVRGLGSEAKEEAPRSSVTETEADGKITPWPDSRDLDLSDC
Assay: Displacement of [3H]CP-55940 from human recombinant CB2 receptor expressed in HEK293 cells
pKi: −log10 of the molar value.
Returns y if the recorded pKi is greater than or equal to 8, and n otherwise.

Examples with answers:
Please indicate if the recorded pKi for CC1CCC(NC(=O)c2cc3cccnc3n(Cc3ccc(F)cc3)c2=O)CC1 (stereo unspecified) meets or exceeds 8.
y

Say whether `C[C@H]1CC[C@H](NC(=O)c2cc3cccnc3n(Cc3ccccc3)c2=O)CC1` shows pKi of 8 or more.
n

Does the compound `O=C(NC1CCCCCC1)c1cc2cccnc2n(CCN2CCOCC2)c1=O` have recorded pKi that is 8 or more?
y

Evaluate `O=C(NC1CCCCCC1)c1cc2cccnc2n(Cc2ccc(F)cc2)c1=O` : pKi at minimum 8?
y

Test whether the compound `C[C@H]1CC[C@@H](NC(=O)c2cc3cccnc3n(Cc3ccccc3)c2=O)CC1` records pKi of 8 or higher.
y

Assess whether reported pKi for `CCCC(C)(C)c1ccc2c(c1)OC(C)(C)[C@@H]1CC=C(C)C[C@@H]21` sits at 8 or higher.
y

In plain terms: is recorded pKi at least 8 for `CCCCn1c(=O)c(C(=O)NC2CCCCC2)cc2cccnc21` ?
n

Determine whether measured pKi meets or exceeds 8 for `C[C@H]1CC[C@@H](NC(=O)c2cc3cccnc3n(Cc3ccc(F)cc3)c2=O)CC1`
y

State whether the measured pKi reaches 8, counting equality as reaching it, for `O=C(NC1CCCCCC1)c1cc2cccnc2n(Cc2ccccc2)c1=O`
n

// inclusive: pKi at least 8? input: `O=C(NC1CCCCC1)c1cc2cccnc2n(Cc2ccc(F)cc2)c1=O`
y

Others:
Check the entry `O=C(NCCc1ccc(F)cc1)c1cc2cccnc2n(Cc2ccccc2)c1=O` : does pKi equal or exceed 8?
n

Identify whether the reported pKi of the following compound is 8 or greater: CC1CCC(NC(=O)c2cc3cccnc3n(CCN3CCOCC3)c2=O)CC1 (stereo unspecified)
y

Does the reported pKi for `O=C(NC1CCCCC1)c1cc2cccnc2n(Cc2ccccc2)c1=O` fall at or above the 8 mark?
n
